Hey, just so you know, these numbers are from paper PMC10729961.

Target: PfENT1 A134C (Plasmodium falciparum, UniProt Q8IDM6, A134C)
Construct: expressed in transfected cells; host or cells: purine auxotrophic yeast (ade2Δ, fui1Δ), pCM189 episomal plasmid
Sequence (Q8IDM6 whole entry A134C): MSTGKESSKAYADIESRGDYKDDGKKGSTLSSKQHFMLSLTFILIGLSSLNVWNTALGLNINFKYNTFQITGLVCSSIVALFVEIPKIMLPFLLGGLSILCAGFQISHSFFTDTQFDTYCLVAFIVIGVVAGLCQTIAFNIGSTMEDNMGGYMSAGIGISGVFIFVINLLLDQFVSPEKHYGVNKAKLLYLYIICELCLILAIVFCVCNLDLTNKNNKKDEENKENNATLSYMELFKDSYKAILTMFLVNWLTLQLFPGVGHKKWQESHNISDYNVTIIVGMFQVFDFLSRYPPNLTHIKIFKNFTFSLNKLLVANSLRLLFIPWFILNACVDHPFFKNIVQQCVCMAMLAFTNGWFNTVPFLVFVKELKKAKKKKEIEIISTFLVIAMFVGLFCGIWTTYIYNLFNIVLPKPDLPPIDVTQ
Assay: [3H]adenosine uptake assay, competition with cold uridine
Assay type: cell-based
measured-metric: IC50 (µM)
Give the number; µM is assumed, so skip it.

Readout IC50 for O=c1ccn([C@@H]2O[C@H](CO)[C@@H](O)[C@H]2O)c(=O)[nH]1 , test system PfENT1 A134C (Plasmodium falciparum, UniProt Q8IDM6, A134C), was 1020
